- test.system: yeast HSP90 (Saccharomyces cerevisiae)
- Construct: made in house; host or cells: E. coli
- assay.method.text: Malachite green HSP90 ATPase assay
- Format: biochemical
- experimental.setup: activity class; read-out: Hsp90 IC50
pIC50: −log10 of the molar value.
recorded.endpoint: pIC50

Ask: Any idea what pIC50 was measured for `Cc1[nH]nc(-c2cc(Cl)ccc2O)c1-c1ccc2c(c1)OCCO2` ?
Result: 4.00 to 5.00

Others:
Ask: Name the reported pIC50 value associated with the compound `N#CCCCCOc1cccc(-c2c[nH]nc2-c2cc(Cl)c(O)cc2O)c1`
Result: > 5.00

Ask: Similarly, `Cc1nc(-c2c[nH]nc2-c2ccc(O)cc2O)cs1` ?
Result: < 5.00

Ask: Let us now turn to `CCOC(=O)c1ccc(-c2n[nH]c(C)c2-c2ccc3c(c2)OCCO3)cc1`
Result: < 5.00

Ask: Again, but for `Cc1c(CC(=O)NCc2ccc(-c3c[nH]nc3-c3cc(Cl)c(O)cc3O)cc2)c(=O)oc2cc(N)c(S(=O)(=O)O)cc12`
Result: > 5.00

Ask: // query: `Oc1ccc(-c2[nH]ncc2-c2ccc(Br)cc2)c(O)c1`
Result: < 5.00

Ask: Query `CCOc1cc(O)c(-c2n[nH]cc2-c2nc(C)cs2)cc1CC` next
Result: < 5.00

Ask: // query: `Oc1ccc(-c2n[nH]c(C(F)(F)F)c2-c2ccccc2Cl)c(O)c1`
Result: < 5.00

Ask: One more compound: `COc1ccc(-c2c(-c3ccc(O)c(C)c3O)n[nH]c2C)cc1`
Result: < 5.00

Ask: Then what about the compound `CCc1cc(-c2n[nH]cc2-c2ccc3c(c2)OCO3)c(O)cc1OC` ?
Result: < 5.00

====

- test.system: yeast HSP90 (Saccharomyces cerevisiae, UniProt P02829)
- Construct: made in house; host or cells: E. coli
- Sequence (P02829 whole entry, looked up): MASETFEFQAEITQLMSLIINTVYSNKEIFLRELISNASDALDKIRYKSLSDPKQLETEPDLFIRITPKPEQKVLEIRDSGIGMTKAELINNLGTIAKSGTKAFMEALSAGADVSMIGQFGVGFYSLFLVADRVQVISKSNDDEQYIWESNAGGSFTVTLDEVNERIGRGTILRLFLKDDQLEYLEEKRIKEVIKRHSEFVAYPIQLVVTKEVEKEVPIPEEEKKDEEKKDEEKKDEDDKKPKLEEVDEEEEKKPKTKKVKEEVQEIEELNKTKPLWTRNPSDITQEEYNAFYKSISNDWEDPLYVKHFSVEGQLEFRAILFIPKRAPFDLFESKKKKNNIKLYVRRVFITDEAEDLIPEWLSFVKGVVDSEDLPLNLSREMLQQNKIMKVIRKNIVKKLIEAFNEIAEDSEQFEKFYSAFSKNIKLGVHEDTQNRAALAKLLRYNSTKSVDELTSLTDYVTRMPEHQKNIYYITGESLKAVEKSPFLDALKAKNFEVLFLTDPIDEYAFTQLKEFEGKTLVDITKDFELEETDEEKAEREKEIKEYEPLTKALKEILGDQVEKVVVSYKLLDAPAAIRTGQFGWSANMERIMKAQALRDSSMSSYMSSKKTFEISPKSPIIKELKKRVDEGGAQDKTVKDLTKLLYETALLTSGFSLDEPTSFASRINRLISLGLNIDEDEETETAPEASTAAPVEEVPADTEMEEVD
- assay.method.text: Malachite green HSP90 ATPase assay
- Type: biochemical
- experimental.setup: activity class; read-out: Hsp90 IC50
A collection of compounds and their measured IC50

Ask: For the compound shown here, `CCc1cc(-c2n[nH]cc2-c2ccc(OC)cc2)c(O)cc1O` , give the reported IC50.
Result: 10 to 100 µM

Ask: Then this compound: `COc1ccc(-c2c(-c3cc(-c4ccccc4)c(O)cc3O)n[nH]c2C)cc1`
Result: < 10 µM

Ask: And what about the compound `Oc1ccc(-c2c[nH]nc2-c2cc(Cl)c(O)cc2O)cc1` ?
Result: < 10 µM

Ask: Try this compound next: `Cc1[nH]nc(-c2ccc(O)cc2O)c1-c1ccccc1`
Result: > 10 µM

Ask: Another: `Oc1cc(O)c(-c2n[nH]cc2-c2cccc(OCCF)c2)cc1Cl`
Result: < 10 µM

====

Overview of recorded pIC50 for various compounds
- test.system: yeast HSP90 (Saccharomyces cerevisiae, UniProt P02829)
- Construct: made in house; host or cells: E. coli
- assay.method.text: Malachite green HSP90 ATPase assay
- Type: biochemical
- experimental.setup: activity class; read-out: Hsp90 IC50
pIC50: −log10 of the molar value.

// known answers, use as guide
Ask: # query: pIC50 | item `Cc1ccc(-n2cc(-c3c[nH]nc3-c3ccc(O)cc3O)cn2)cc1` | system: yeast HSP90 (Saccharomyces cerevisiae, UniProt P02829)
Result: < 5.00

Ask: Now consider `Cc1[nH]nc(-c2ccc(O)cc2O)c1-c1ccc2c(c1)OCCCO2` .
Result: < 5.00

Ask: // query: `COc1ccc(-c2c(C)n[nH]c2-c2cnc(N)nc2)cc1`
Result: < 5.00

Others:
Ask: Provide the documented pIC50 with yeast HSP90 (Saccharomyces cerevisiae, UniProt P02829) as the system for `COc1ccc(-c2c[nH]nc2-c2ccc(O)cc2O)cc1OC`
Result: 4.00 to 5.00

Ask: `COc1ccc(-c2cccc(-c3c[nH]nc3-c3cc(Cl)c(O)cc3O)c2)cc1OC` , same question.
Result: 4.00 to 5.00

Ask: Likewise for `CCc1cc(-c2n[nH]cc2-c2ccc(Br)cc2)c(O)cc1O` ?
Result: > 5.00

Ask: Now the same for `Cc1ncc(-c2c(-c3ccc(O)cc3O)n[nH]c2C(F)(F)F)s1`
Result: < 5.00

Ask: Could you do the same for `CCCc1cc(-c2n[nH]c(C)c2-c2ccc(C(=O)OCC)o2)c(O)cc1O` , please?
Result: 4.00 to 5.00

Ask: Then `CCCc1cc(-c2[nH]ncc2-c2ccc(C(=O)OCC)o2)c(O)cc1O` ?
Result: 4.00 to 5.00

Ask: What do you get for `COc1ccccc1-c1c[nH]nc1-c1cc(Cl)c(O)cc1O` ?
Result: 4.00 to 5.00

Ask: Item: `CCc1cc(-c2[nH]nc(CCC(=O)O)c2-c2nc3ccccc3n2C)c(O)cc1O`
Result: 4.00 to 5.00

Ask: Also need `CCCc1cc(-c2n[nH]c(C)c2-c2ccc3c(c2)OCCO3)c(O)cc1O` , thanks.
Result: 4.00 to 5.00
